assay: soluble fraction after stress (log2 fold change); higher = more stays soluble; pooled small domains, quantitative proteomics; conditions: stress: 75 degC;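 also: 20 min heating vs room temperature control held 20 min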
metric name: soluble fraction (log2)

• HMGIFDIIQEINRQGVTVLLIEQNANMALKIADVGYVLETGRISLTGSGRELLANEAVKKAYL = -1.29
• HMTTSNPMNVTSAEAAFDNGTDRLNAFISGRTTSEERSTYFPLFVRETKEDFLRAVGRFNEYIANHG = 0.055
• HMNENDENLRQQAIDASKEVRRWGEPVTLPPMNAHDRRIIHITLEGESDLQTESTGEGNFKSVVISLK = -0.171
• HMDVQGFVMDLDKPLDKEPIVEGFELKLEDSLTLVAAVNKDKSINSLFDELSKLGIKVKSMRNPP = 0.0316
• HMTTTAGTAVVQTGNSGKLNLREQAYSNAGILGRYSNGTIVTVLQKGSAWSYVEVQGQKGYMMSKFLRFT = -2.75
• HMEAGTVTVTHAAVYIRSGPGVSYPIAGKAAKNDTYTVLQKDGDWFQIRLPQGNTGWIAGWLVETGT = -1.69
• HMQEDSNISFVKIHVDADSGMAHKKLSKLSLPTGFLIVVIIRGEENIIPNGETEVLPGDLLVAAAREFEN = -1.31
• HMTNTDYPGKVVPVDPDGKTLKPDGDASYNDKPGTKVKTPTVPGYTAEVPNVEVPVGGGDIKVTYHKKPV = -0.0351
• HMRGVDRPLTLPRHWRRNAGRLVKVTLANGSAVTGRVLDPGEERVTLEVSGERHEVAYADVKKALVQVEF = -2.07
• HMEQLIIQEELSGKRLDQLVSLLFPSLTRAHAQKLIKEGAVLVNEKPRKPAYAVMTGELLTVELPEPE = -0.167
• HMGTTLTKIPGIGENRARLLLRHFGSLRAVREADADALAAVKGMTRPAAEAIVRYFEQQDAEGRRD = 0.282
• HMNMAVELEDGTQIFVFSEDGEFAGKRAVIADEEGRPTEENAPAGTHTLRDGRSIVVGEGGVIESVVET = -0.0672
• HMDIEVEVPNLVGMSLDEAKSIIQSMGLVVGLTIEDPSAKVSDNSVTKQKPTYQTGVKLRSGDMIDIWYAG = -0.659
• HMSNEWIEISAKTVDDAINEGLIRLGTTTDKMDVEVLEKESAGFLGFIGKHDAKIRVRFKEV = -0.0738
• HMAYRLDVRNQTKGTYLVIQKKYWDKEKKQSRTKHHMSLGYVHDLQKLYSDPITHYKEVINQMNAEEKG = -2.09
• HMNSTNYQVIITANGGLNIRAGASTAYARIGGYAKGTVVTILAESNGFGKTDKGWISLNYTSKDLD = -3.11
• HMRQHHMIISTKLGTPKEELAKLVSGFEDQGLRVSVITGTDYTVIGLVGDTTHLDEKRIRANPYVDNVQRV = -0.813
• HMSRQDYLQTIYRLSVGKGYTTNKKIADFLSVSKPSVTEMIGKLQGEGLVAMDGAHIFLTEDGAEQ = -0.595
